Every entry's value here was drawn from patent US7425640B2.

# subject-of-test: HCV RNA-dependent RNA polymerase NS5B (Δ21) (Hepatitis C virus genotype 1b)
# Sequence (P26663 2420-2989, stated change not applied): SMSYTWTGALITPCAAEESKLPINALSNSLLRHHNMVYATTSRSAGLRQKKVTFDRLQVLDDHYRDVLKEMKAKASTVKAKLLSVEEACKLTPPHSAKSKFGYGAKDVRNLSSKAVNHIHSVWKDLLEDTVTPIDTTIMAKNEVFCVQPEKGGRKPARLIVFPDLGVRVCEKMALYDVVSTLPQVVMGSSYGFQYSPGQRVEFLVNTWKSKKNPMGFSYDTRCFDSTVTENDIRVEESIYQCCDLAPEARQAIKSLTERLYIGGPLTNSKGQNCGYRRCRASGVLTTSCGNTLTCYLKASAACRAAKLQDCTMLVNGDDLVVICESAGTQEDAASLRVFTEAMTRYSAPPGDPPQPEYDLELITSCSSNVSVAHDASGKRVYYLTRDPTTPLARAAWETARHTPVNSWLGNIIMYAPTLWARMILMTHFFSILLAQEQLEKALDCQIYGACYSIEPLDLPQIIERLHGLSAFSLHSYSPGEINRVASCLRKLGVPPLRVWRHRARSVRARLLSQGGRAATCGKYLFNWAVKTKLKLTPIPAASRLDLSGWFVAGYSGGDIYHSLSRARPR
# assay-explanation: Assay for HCV RNA-dependent RNA polymerase activity (SPA, [3H]-GTP incorporation)
# Type: biochemical
# condition-context: read-out: Δ21 Activity (IC50 μM); 50 nM NS5B (Δ21), class symbols

compound	IC50
O=C(Cn1nc(C(=O)O)cc1C(=O)N[C@H]1CCCC[C@@H]1OCc1ccccc1)Nc1ncccc1Oc1ccccc1 [Compound 160]	0.1 to 1 µM
CC(C)(NC(=O)c1cc(C(=O)N[C@H]2CCCC[C@@H]2OCc2ccccc2)n(CC(=O)N[C@H]2CCCC[C@@H]2OCc2ccccc2)n1)c1ccccc1 [Compound 52]	0.1 to 1 µM
CC(C)(C)ONC(=O)c1cc(C(=O)N[C@H]2CCCC[C@@H]2OCc2ccccc2)n(CC(=O)N[C@H]2CCCC[C@@H]2OCc2ccccc2)n1 [Compound 116]	0.1 to 1 µM
CN(C)c1cccc2c(S(=O)(=O)Nc3cc(C(=O)N[C@H]4CCCC[C@@H]4OCc4ccccc4)n(CC(=O)N[C@H]4CCCC[C@@H]4OCc4ccccc4)n3)cccc12 [Compound 113]	0.1 to 1 µM
CC(C)C(=O)c1cc(C(=O)N[C@H]2CCCC[C@@H]2OCc2ccccc2)n(CC(=O)N[C@H]2CCCC[C@@H]2OCc2ccccc2)n1 [Compound 63]	0.1 to 1 µM
Cc1ccc(OCC2CC2)c(NC(=O)Cn2nc(C(=O)O)cc2C(=O)N[C@H]2CCCC[C@@H]2OCc2ccccc2)c1 [Compound 56]	0.1 to 1 µM
O=C(O)c1cc(C(=O)N[C@H]2CCCC[C@@H]2OCc2ccccc2)n(CS(=O)(=O)N[C@H]2CCCC[C@@H]2OCc2ccccc2)n1 [Compound 57]	0.1 to 1 µM
CCCCOCCCNC(=O)c1cc(C(=O)N[C@H]2CCCC[C@@H]2OCc2ccccc2)n(CC(=O)N[C@H]2CCCC[C@@H]2OCc2ccccc2)n1 [Compound 93]	0.1 to 1 µM
O=C(Cn1nc(C(=O)NCc2ccncc2)cc1C(=O)N[C@H]1CCCC[C@@H]1OCc1ccccc1)N[C@H]1CCCC[C@@H]1OCc1ccccc1 [Compound 138]	0.1 to 1 µM
Cc1ccc(OCC2CC2)c(NC(=O)c2cc(C(=O)O)nn2CC(=O)N[C@H]2CCCC[C@@H]2OCc2ccccc2)c1 [Compound 76]	0.1 to 1 µM
O=C(Cn1nc(C(=O)Nc2nnn[nH]2)nc1C(=O)N[C@H]1CCCC[C@@H]1OCc1ccccc1)N[C@H]1CCCC[C@@H]1OCc1ccccc1 [Compound 115]	0.1 to 1 µM
CC(CNC(=O)c1cc(C(=O)N[C@H]2CCCC[C@@H]2OCc2ccccc2)n(CC(=O)N[C@H]2CCCC[C@@H]2OCc2ccccc2)n1)c1ccccc1 (stereo partly drawn) [Compound 117]	0.1 to 1 µM
